Test system: HL-60(TB) leukemia
Test: NCI tumour cell line growth inhibition, 48 h
The entries below are paired with their reported TGI.
# unit: µM | format: bare number

See these solved cases before continuing.
compound	property.label	observed.value
CC(O)(C(=O)N(O)c1ccc(Cl)cc1)c1ccc(Cl)cc1 (stereo not given)	TGI	35.9
COc1ccccc1C(=O)c1ccc2ccccc2c1	TGI	21.8
CCOC(=O)C(C)NC(=O)N(C)C12CC3CC(CC(C3)C1)C2 (stereo not given)	TGI	272
CN(C)c1nc(=NCc2ccccn2)ss1	TGI	4.95
Cc1ccc2c(c1)C(=O)/C(=C\c1ccc(Cl)cc1)CCS2(=O)=O	TGI	5.26
COc1cc2c(cc1OCCCOc1cc3c(cc1OC)C(=O)N1CCC[C@H]1CN3)N=C[C@@H]1CCCN1C2=O	TGI	0.68
Oc1ccc(Cc2ccccc2)c2cccnc12	TGI	6.65

Lab note: next compound to report on.
Please give the measured TGI for this compound: COc1ccc(/C=C/C(=O)c2sc(-n3nc(-c4ccccc4)cc3-c3ccccc3)nc2C)cc1OC 62.2
